- targetOrTestSystem: GST-JAK2(808-1132) (Homo sapiens, UniProt O60674)
- Construct: GST-JAK2(808-1132); purchased Invitrogen (Carlsbad, USA) #4288
- Sequence (O60674 808-1132): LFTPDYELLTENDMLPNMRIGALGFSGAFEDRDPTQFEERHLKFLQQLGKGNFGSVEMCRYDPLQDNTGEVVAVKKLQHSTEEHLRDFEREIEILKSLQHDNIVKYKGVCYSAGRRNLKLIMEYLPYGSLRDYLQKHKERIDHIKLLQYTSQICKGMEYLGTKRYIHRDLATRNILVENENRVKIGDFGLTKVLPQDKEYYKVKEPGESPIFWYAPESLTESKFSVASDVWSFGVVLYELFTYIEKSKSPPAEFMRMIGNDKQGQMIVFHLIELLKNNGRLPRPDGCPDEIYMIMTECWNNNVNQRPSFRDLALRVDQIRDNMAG
- protocolText: JAK2 kinase assay (Caliper mobility shift, LabChip 3000)
- Type: biochemical
pIC50: −log10 of the molar value.
Property: pIC50; scope: individual compounds

These recorded examples may help you get a feel for the data.
Cc1ccc(Nc2ncc3ccn(-c4cc(F)c(CN5CCNC(=O)C5)c(F)c4)c3n2)cc1CN1CCOCC1 [Example 344]    ≥ 8.52
CCN1CCN(Cc2ccc(Nc3ncc4ccn(-c5cc(F)c(CN6CCOCC6)c(F)c5)c4n3)cc2)CC1 [Example 196]    > 8.52
O=C(Cc1ccc(-n2ccc3cnc(Nc4ccccc4)nc32)cc1)N1CCOCC1 [Example 143]    > 8.52
O=C(c1ccc(-n2ccc3cnc(Nc4ccc(CC5CCNCC5)cc4)nc32)cc1F)N1CCOCC1 [Example 381]    ≥ 8.52
O=C(c1c(F)cc(-n2ccc3cnc(Nc4ccc(CN5CCNCC5)cc4)nc32)cc1F)N1CCOCC1 [Example 314]    > 8.52

Input line: Give its pIC50 value. Item: C[C@@H]1CN(c2ccc(Nc3ncc4ccn(-c5cc(F)c(CN6CCOCC6)c(F)c5)c4n3)cn2)C[C@H](C)N1 [Example 267]
Output line: > 8.52
